test system: Mus musculus; assay: Effect on femur length in ovariectomized mouse at 0.1103 mmol/kg, ip once daily for 4 weeks; type: functional
Where a SMILES comes first, the peptide text is derived from it. The star is where a group is joined. Succinyl(O17-estradiol) = C[C@]12CC[C@@H]3c4ccc(O)cc4CC[C@H]3[C@@H]1CC[C@@H]2OC(=O)CCC(=O)*; X2 = C[C@]12CC[C@@H]3c4ccc(OCC(=O)*)cc4CC[C@H]3[C@@H]1CCC2=O
The following compounds are listed with their measured Activity values.
Report the value in cm with no unit label.

# Activity measured on Mus musculus for item C[C@]12CC[C@@H]3c4ccc(O)cc4CC[C@H]3[C@@H]1CC[C@@H]2OC(=O)CCC(=O)N[C@@H](CCCNC(=N)N)C(=O)NCC(=O)N[C@@H](CC(=O)O)C(=O)N[C@@H](Cc1ccccc1)C(=O)O ({Succinyl(O17-estradiol)}-RGDF-OH) = 1.635

For C[C@]12CC[C@@H]3c4ccc(O)cc4CC[C@H]3[C@@H]1CCC2=O on Mus musculus, measured Activity was 1.606

# value of Activity, Mus musculus, item C[C@]12CC[C@@H]3c4ccc(OCC(=O)N[C@@H](CCCNC(=N)N)C(=O)NCC(=O)N[C@@H](CC(=O)O)C(=O)N[C@@H](Cc5ccccc5)C(=O)O)cc4CC[C@H]3[C@@H]1CCC2=O (X2-RGDF-OH) = 1.639

Value sought: Activity, system Mus musculus, item C[C@]12CC[C@@H]3c4ccc(OCC(=O)N[C@@H](CCCNC(=N)N)C(=O)NCC(=O)N[C@@H](CC(=O)O)C(=O)N[C@@H](CO)C(=O)O)cc4CC[C@H]3[C@@H]1CCC2=O (X2-RGDS-OH) . Result: 1.634

###

tested on: Mus musculus; test: Effect on calcium level in mouse at 0.1103 mmol/kg, po; assay type: functional
Where a SMILES comes first, the peptide text is derived from it. The star is where a group is joined. Succinyl(O17-estradiol) = C[C@]12CC[C@@H]3c4ccc(O)cc4CC[C@H]3[C@@H]1CC[C@@H]2OC(=O)CCC(=O)*; X1 = C[C@]12CC[C@@H]3c4ccc(OCC(=O)*)cc4CC[C@H]3[C@@H]1CCC2O
Activity values, listed per item
Your answer should be a plain number; it is taken to be in %.

COMPOUND	MEASUREMENT_TARGET	Activity, %
C[C@]12CC[C@@H]3c4ccc(O)cc4CC[C@H]3[C@@H]1CC[C@@H]2OC(=O)CCC(=O)N[C@@H](CCCNC(=N)N)C(=O)NCC(=O)N[C@@H](CC(=O)O)C(=O)N[C@@H](CO)C(=O)O ({Succinyl(O17-estradiol)}-RGDS-OH)	Mus musculus	51.201
C[C@]12CC[C@@H]3c4ccc(O)cc4CC[C@H]3[C@@H]1CC[C@@H]2O	Mus musculus	41.729
C[C@]12CC[C@@H]3c4ccc(OCC(=O)N[C@@H](CCCNC(=N)N)C(=O)NCC(=O)N[C@@H](CC(=O)O)C(=O)N[C@@H](Cc5ccccc5)C(=O)O)cc4CC[C@H]3[C@@H]1CCC2O (stereo not given in full) (X1-RGDF-OH)	Mus musculus	53.001
C[C@]12CC[C@@H]3c4ccc(OCC(=O)N[C@@H](CCCNC(=N)N)C(=O)NCC(=O)N[C@@H](CC(=O)O)C(=O)N[C@@H](CO)C(=O)O)cc4CC[C@H]3[C@@H]1CCC2O (stereo not given in full) (X1-RGDS-OH)	Mus musculus	51.988

Turning now to a further compound:
Entry CC(C)[C@H](NC(=O)[C@H](CC(=O)O)NC(=O)CNC(=O)[C@H](CCCNC(=N)N)NC(=O)COc1ccc2c(c1)CC[C@@H]1[C@@H]2CC[C@]2(C)C(O)CC[C@@H]12)C(=O)O (stereo not given in full) (X1-RGDV-OH) ; Activity = 52.197

###

test system: Mus musculus; test: Effect on uterus weight in ovariectomized mouse at 0.1103 mmol/kg, ip once daily for 4 weeks; assay type: functional
Where a SMILES comes first, the peptide text is derived from it. The star is where a group is joined. X2 = C[C@]12CC[C@@H]3c4ccc(OCC(=O)*)cc4CC[C@H]3[C@@H]1CCC2=O; X1 = C[C@]12CC[C@@H]3c4ccc(OCC(=O)*)cc4CC[C@H]3[C@@H]1CCC2O
Activity vs 60 mg: less than gives met; not less than gives not met.

MOLECULE	MEASUREMENT_TARGET	CLASSIFICATION
C[C@]12CC[C@@H]3c4ccc(O)cc4CC[C@H]3[C@@H]1CCC2=O	Mus musculus	not met
C[C@]12CC[C@@H]3c4ccc(OCC(=O)N[C@@H](CCCNC(=N)N)C(=O)NCC(=O)N[C@@H](CC(=O)O)C(=O)N[C@@H](Cc5ccccc5)C(=O)O)cc4CC[C@H]3[C@@H]1CCC2O (stereo partly specified) (X1-RGDF-OH)	Mus musculus	met
CC(C)[C@H](NC(=O)[C@H](CC(=O)O)NC(=O)CNC(=O)[C@H](CCCNC(=N)N)NC(=O)COc1ccc2c(c1)CC[C@@H]1[C@@H]2CC[C@]2(C)C(O)CC[C@@H]12)C(=O)O (stereo partly specified) (X1-RGDV-OH)	Mus musculus	met
N=C(N)NCCC[C@H](N)C(=O)NCC(=O)N[C@@H](CC(=O)O)C(=O)N[C@@H](CO)C(=O)O	Mus musculus	not met

Please examine the following record next.
Prompt: Bench note: check whether C[C@]12CC[C@@H]3c4ccc(OCC(=O)N[C@@H](CCCNC(=N)N)C(=O)NCC(=O)N[C@@H](CC(=O)O)C(=O)N[C@@H](CO)C(=O)O)cc4CC[C@H]3[C@@H]1CCC2=O (X2-RGDS-OH) shows Activity below 60 mg
Completion: not met
